Tested on: COLO-824 (Breast Carcinoma)
Assay: Bliss excess, mean over the matrix (fraction); higher = more synergy
Parameter Bliss excess: see the listing below.
Output: the number by itself.

Some solved cases for reference:
# compound, targetOrTestSystem, Bliss excess
rows = [
    ("CC(=O)Nc1cccc(-n2c(=O)n(C3CC3)c(=O)c3c(Nc4ccc(I)cc4F)n(C)c(=O)c(C)c32)c1 [Trametinib] + Cc1nc(-c2cn3c(n2)-c2ccc(-c4cnn(C(C)(C)C(N)=O)c4)cc2OCC3)n(C(C)C)n1 [Taselisib] (first compound max 1 µM, 7x7, partner max 10 µM)", "COLO-824 (Breast Carcinoma)", 0.21),
    ("COc1cc2c(cc1OCCCCCOc1cc3c(cc1OC)C(=O)N1C=C(C)C[C@H]1C=N3)N=C[C@@H]1CC(C)=CN1C2=O [SG3199] + O=C(c1cc(Cc2n[nH]c(=O)c3ccccc23)ccc1F)N1CCN(C(=O)C2CC2)CC1 [Olaparib] (first compound max 0.001 µM, 7x7, partner max 10 µM)", "COLO-824 (Breast Carcinoma)", -0.03),
]

input: Specify Bliss excess for COc1nnc2ccc(N3CCC(c4ccc(OCCN5CCN(C)C(=O)[C@H]5C)cc4)CC3)nn12 [AZD5153] + CN(CC[C@H](CSC1=CC=CC=C1)NC2=C(C=C(C=C2)S(=O)(=O)NC(=O)C3=CC=C(C=C3)N4CCC(CC4)[C@H](C5=CC=CC=C5C6=CC=C(C=C6)Cl)O)S(=O)(=O)C(F)(F)F)CCO [AZD4320] (first compound max 1 µM, 7x7, partner max 1 µM) and stop.
output: 0.057

====

Tested on: SK-MG-1 (Low Grade Glioma)
Assay: Bliss excess, mean over the matrix (fraction); higher = more synergy
quantityKind: Bliss excess
Output: the number by itself.

Some solved cases for reference:
# compound, quantityKind, measurement
measured = [
    ("CCN(CCO)CCCOc1ccc2c(Nc3cc(CC(=O)Nc4cccc(F)c4)[nH]n3)ncnc2c1 [AZD2811] + O=C(c1cc(Cc2n[nH]c(=O)c3ccccc23)ccc1F)N1CCN(C(=O)C2CC2)CC1 [Olaparib] (first compound max 1 µM, 7x7, partner max 10 µM)", "Bliss excess", 0.0331),
    ("COc1nnc2ccc(N3CCC(c4ccc(OCCN5CCN(C)C(=O)[C@H]5C)cc4)CC3)nn12 [AZD5153] + Cn1cnc2c(F)c(Nc3ccc(Br)cc3Cl)c(C(=O)NOCCO)cc21 [Selumetinib] (first compound max 1 µM, 7x7, partner max 10 µM)", "Bliss excess", -0.0443),
    ("Cc1cc2ncnn2cc1Nc1ncc2c(n1)n(C1CCOCC1)c(=O)n2C [AZD7648] + CN(C)CCCOc1ccc(-c2ccc3ncc4c(c3c2)n(C2CCOCC2)c(=O)n4C)cn1 [AZD0156] (first compound max 10 µM, 7x7, partner max 1 µM)", "Bliss excess", 0.0047),
]

// next item, Bliss excess requested
input: Specify Bliss excess for CC(=O)Nc1cccc(-n2c(=O)n(C3CC3)c(=O)c3c(Nc4ccc(I)cc4F)n(C)c(=O)c(C)c32)c1 [Trametinib] + Cc1nc(-c2cn3c(n2)-c2ccc(-c4cnn(C(C)(C)C(N)=O)c4)cc2OCC3)n(C(C)C)n1 [Taselisib] (first compound max 1 µM, 7x7, partner max 10 µM) and stop.
output: 0.144

====

Tested on: SK-MG-1 (Low Grade Glioma)
Assay: combination Emax (second highest fraction inhibited in the dose matrix, 72 h); higher = more inhibition; extreme values may be limits of the assay
Parameter combination Emax: see the listing below.
Output: the number by itself.

Some solved cases for reference:
# molecule, combination Emax
data = [
    ("COc1nnc2ccc(N3CCC(c4ccc(OCCN5CCN(C)C(=O)[C@H]5C)cc4)CC3)nn12 [AZD5153] + CCN(CCO)CCCOc1ccc2c(Nc3cc(CC(=O)Nc4cccc(F)c4)[nH]n3)ncnc2c1 [AZD2811] (first compound max 1 µM, 7x7, partner max 1 µM)", 0.566),
    ("COc1cccc2c1C(=O)c1c(O)c3c(c(O)c1C2=O)C[C@@](O)(C(=O)CO)C[C@@H]3O[C@H]1C[C@H](N)[C@H](O)[C@H](C)O1 [Doxorubicin] + Cc1cc2ncnn2cc1Nc1ncc2c(n1)n(C1CCOCC1)c(=O)n2C [AZD7648] (first compound max 1 µM, 7x7, partner max 10 µM)", 0.802),
    ("NC1(C(=O)N[C@@H](CCO)c2ccc(Cl)cc2)CCN(c2ncnc3[nH]ccc23)CC1 [Capivasertib] + CCN(CCO)CCCOc1ccc2c(Nc3cc(CC(=O)Nc4cccc(F)c4)[nH]n3)ncnc2c1 [AZD2811] (first compound max 10 µM, 7x7, partner max 1 µM)", 0.607),
    ("CN(C)CCCOc1ccc(-c2ccc3ncc4c(c3c2)n(C2CCOCC2)c(=O)n4C)cn1 [AZD0156] + CCN(CCO)CCCOc1ccc2c(Nc3cc(CC(=O)Nc4cccc(F)c4)[nH]n3)ncnc2c1 [AZD2811] (first compound max 1 µM, 7x7, partner max 1 µM)", 0.388),
    ("Cc1c2c(nn1C)CSCc1cc(n(C)n1)CSc1cc(c3ccccc3c1)OCCCc1c(C(=O)O)n(C)c3c-2c(Cl)ccc13 [AZD5991] + C[C@@H]1COCCN1C2=NC(=NC(=C2)C3(CC3)[S@](=N)(=O)C)C4=C5C=CNC5=NC=C4 [AZD6738] (first compound max 1 µM, 7x7, partner max 10 µM)", 0.566),
    ("CN(CCO)CC[C@H](CSc1ccccc1)Nc1ccc(S(=O)(=O)NC(=O)c2ccc(N3CCC([C@@H](O)c4ccccc4-c4ccc(Cl)cc4)CC3)cc2)cc1S(=O)(=O)C(F)(F)F [AZD4320] + Cn1cnc2c(F)c(Nc3ccc(Br)cc3Cl)c(C(=O)NOCCO)cc21 [Selumetinib] (first compound max 1 µM, 7x7, partner max 3 µM)", 0.441),
]

// next item, combination Emax requested
input: Provide SK-MG-1 (Low Grade Glioma) combination Emax reading for CC1(C)CCC(CN2CCN(c3ccc(C(=O)NS(=O)(=O)c4ccc(NCC5CCOCC5)c([N+](=O)[O-])c4)c(Oc4cnc5[nH]ccc5c4)c3)CC2)=C(c2ccc(Cl)cc2)C1 [Venetoclax] + CN(C)CCCOc1ccc(-c2ccc3ncc4c(c3c2)n(C2CCOCC2)c(=O)n4C)cn1 [AZD0156] (first compound max 1 µM, 7x7, partner max 1 µM) .
output: 0.275
